Assay: Clearance in rat at 5 mg/kg, po or 1 mg/kg, iv
Assay type: ADME, organism-based
Settings: in vivo
readout: clearance (mL/min/kg)
Give the quantity in mL/min/kg, number only.

Q: GET /values?readout=clearance&item= C=C(C)[C@@H]1CC[C@]2(C(=O)O)CC[C@]3(C)[C@H](CC[C@@H]4[C@@]5(C)CC=C(c6ccc(C(=O)O)cc6)C(C)(C)[C@@H]5CC[C@]43C)[C@@H]12
A: 1

Continuing:
Q: GET /values?readout=clearance&item= C=C(C)[C@@H]1CC[C@]2(C(=O)O)CC[C@]3(C)[C@H](CC[C@@H]4[C@@]5(C)CC[C@H](OC(=O)CC(C)(C)C(=O)O)C(C)(C)[C@@H]5CC[C@]43C)[C@@H]12 [BEVIRIMAT]
A: 4

====

Assay: AUC in rat for 6 hrs
Type: ADME
Design: time 6 hrs
Settings: in vivo
readout: AUC at 6 h (µM·h)
Give the quantity in µM·h, number only.

Q: GET /values?readout=AUC at 6 h&item= C=C(C)[C@@H]1CC[C@]2(C(=O)O)CC[C@]3(C)[C@H](CC[C@@H]4[C@@]5(C)CC=C(c6ccc(C(=O)O)cc6)C(C)(C)[C@@H]5CC[C@]43C)[C@@H]12
A: 5.72

====

Each entry below lists one item and its recorded pEC50 value.
Assay: Binding affinity to HIV-1 CA-SP1 cleavage site of Gag-pol protein harboring deltaV370 mutant assessed as inhibition of HIV-1 maturation
Design: species or system Human immunodeficiency virus 1
pEC50: −log10 of the molar value.

Q: GET /values?readout=pEC50&item= C=C(C)[C@@H]1CC[C@]2(C(=O)NCCC(=O)O)CC[C@]3(C)[C@H](CC[C@@H]4[C@@]5(C)CC=C(c6ccc(C(=O)O)cc6)C(C)(C)[C@@H]5CC[C@]43C)[C@@H]12
A: < 5.40

Continuing:
Q: GET /values?readout=pEC50&item= C=C(C)[C@@H]1CC[C@]2(C(=O)O)CC[C@]3(C)[C@H](CC[C@@H]4[C@@]5(C)CC=C(c6ccc(C(=O)O)cc6)C(C)(C)[C@@H]5CC[C@]43C)[C@@H]12
A: < 5.52

Q: Please give the result for C=C(C)[C@@H]1CC[C@]2(C(=O)N[C@@H](CN(C)C)C(=O)O)CC[C@]3(C)[C@H](CC[C@@H]4[C@@]5(C)CC=C(c6ccc(C(=O)O)cc6)C(C)(C)[C@@H]5CC[C@]43C)[C@@H]12 too.
A: < 6.80

Values compiled from ChEMBL document CHEMBL4665638.
